Where do these numbers come from? They come from PubChem BioAssay (NCATS).

- condition-parameters: Ebola virus entry assay, blue channel fluorescence
Calls of active or inactive are those of the source. How the calls were made is not given here.
Returns: one label drawn from Yes = active, No = inactive

Solved cases (8 shown):
[[record]]
compound = "O=C(CN1CCN(Cc2ccc3c(c2)OCO3)CC1)N1c2ccccc2Sc2ccccc21"
assigned_label = "Yes"

[[record]]
compound = "CC#C[C@]1(O)CC[C@H]2[C@@H]3C[C@H](C)C4=CC(=O)CC[C@]4(C)[C@H]3CC[C@@]21C"
assigned_label = "No"

[[record]]
compound = "NCCNc1cccc2ccccc12"
assigned_label = "Yes"

[[record]]
compound = "NCC(=O)O"
assigned_label = "No"

[[record]]
compound = "C[C@]12CC[C@H]3[C@@H](CCC4=CC(=O)CC[C@@]43C)[C@@H]1CC[C@@H]2C(=O)CO"
assigned_label = "No"

[[record]]
compound = "CC(=O)Oc1ccc(C2(c3ccc(OC(C)=O)cc3)Oc3ccccc3NC2=O)cc1"
assigned_label = "No"

[[record]]
compound = "O=C1C(CCS(=O)c2ccccc2)C(=O)N(c2ccccc2)N1c1ccccc1 (centres undefined)"
assigned_label = "No"

[[record]]
compound = "CN1CCC(Nc2ncc3ncnc(Nc4ccc(F)c(Cl)c4)c3n2)CC1"
assigned_label = "No"


Which result was noted for this compound in the test: CO/N=C(\C(=O)O)c1csc(NC(=O)CCl)n1
No

Also check Cc1ccc(C(C)OC(=O)C2(C)CCC(C(=O)O)C2(C)C)cc1 (centres undefined)
No

And for Cc1sccc1Br ?
No

====

- condition-parameters: Ebola virus entry assay, ratio channel
The source made the active and inactive calls. The rule behind the calls is not given here.
Respond only with the outcome that fits, drawn from label 1 for active, label 0 for inactive

[[record]]
molecule = "c1cc2c(c(N3CCNCC3)c1)OCCO2"
assigned_label = "label 0"

[[record]]
molecule = "OC(CN1CCC(Cc2ccc(F)cc2)CC1)c1ccc(Cl)cc1 (stereo unspecified)"
assigned_label = "label 0"

[[record]]
molecule = "CCN(CC)CCOc1ccc(C(O)(Cc2ccc(Cl)cc2)c2ccc(C)cc2)cc1 (stereo unspecified)"
assigned_label = "label 1"

[[record]]
molecule = "CC(Cc1cccc(C(F)(F)F)c1)NCCOC(=O)c1ccccc1 (stereo unspecified)"
assigned_label = "label 1"

[[record]]
molecule = "Cc1cc(C(C)(C)C)c(O)c(C(C)(C)C)c1"
assigned_label = "label 0"

[[record]]
molecule = "C[C@]12C=CC(=O)C=C1CC[C@@H]1[C@@H]2CC[C@@]2(C)[C@H]1CC[C@]2(C)O"
assigned_label = "label 0"


Look up the recorded call for CC/C(=C(/CC)c1ccc(O)cc1)c1ccc(O)cc1 in this test.
label 0

Okay, and O=C1[C@H]2CCCC[C@H]2C(=O)N1CCCCN1CCN(c2nsc3ccccc23)CC1 ?
label 1

Then what about the molecule NCCNc1cccc2ccccc12 ?
label 1

Same again, this time with COP(=O)(OC)OC=C(Cl)Cl
label 0

Then this molecule: C[C@@H]1C[C@H]2[C@@H]3CCC4=CC(=O)C=C[C@]4(C)[C@@]3(Cl)[C@@H](O)C[C@]2(C)[C@@]1(OC(=O)c1ccco1)C(=O)CCl
label 1

====

- method-summary: qHTS of pediatric cancer cell lines to identify multiple opportunities for drug repurposing: Primary screen for BT-12 cells (AID 1347101); further: nearly all actives have a fitted effect of over 25% in size
- condition-parameters: BT-12 viability, CellTiter-Glo luminescence, 48 h; series mostly up to 57.3 µM
Results filed as inconclusive are left out. The source made the active and inactive calls. Calls follow the shape of the dose curve; as a rule, active = well fitted cell-killing curve with a large enough effect; inconclusive = small, poorly fitted or top-dose-only effect; inactive = flat fitted curve, though single readings scatter.
// classify into active, inactive

[[record]]
compound = "C[N+]1(CCC(C(N)=O)(c2ccccc2)c2ccccc2)CCCCC1"
assigned_label = "inactive"


Which outcome was assigned to CCOC(=O)NC(C)(C)Cc1ccc(Cl)cc1 in this test?
inactive

What would you report for CN1C2CCC(C)(C)C1CC(OC(=O)C(O)(c1cccs1)c1cccs1)C2 (configuration not stated) ?
inactive

Continue with CCN(CC)Cc1nccn1-c1ccc([N+](=O)[O-])cc1C(=O)c1ccccc1Cl
inactive

Subsequent entry: C[C@H]1CNCCc2ccc(Cl)cc21
inactive

Item: Nc1ccccc1C(=O)OCC(O)CO (configuration not stated)
inactive

Try this compound next: CC[n+]1c(-c2ccccc2)c2cc(N)ccc2c2ccc(N)cc21
active

How about Oc1ccc2[nH]cc(CCCCN3CC=C(c4ccccc4)CC3)c2c1 ?
active

====

- Tested on: CP260
- method-summary: qHTS profiling for inhibitors of Plasmodium falciparum proliferation (AID 504749); further: nearly all actives have a fitted effect of over 60% in size
- condition-parameters: P. falciparum in erythrocytes, SYBR Green DNA, 72 h; series mostly up to 28.7 µM
Results filed as inconclusive are left out. The source made the active and inactive calls. The call rests on the fitted dose curve; in most records, active means well fitted inhibition curve with a large enough effect; inconclusive means small, poorly fitted or top-dose-only effect; inactive means flat fitted curve, though single readings scatter.
Select the matching outcome among active, inactive

Would you please look over these solved cases?
[[record]]
compound = "N#Cc1nn(-c2c(Cl)cc(C(F)(F)F)cc2Cl)c(N)c1S(=O)C(F)(F)F (stereo not given)"
assigned_label = "active"

[[record]]
compound = "CCCCCCCCC(=O)NCc1ccc(O)c(OC)c1"
assigned_label = "inactive"


Please let me know the test result on file for CNC(=O)NC(O)C(Cl)(Cl)Cl (stereo not given) .
inactive

Subsequent entry: Cc1ccc(N=CN(C)C=Nc2ccc(C)cc2C)c(C)c1
inactive

Then this compound: COc1ccc(C(=O)N2CCCC2=O)cc1
inactive

Now give it for CNC(=O)Oc1cccc2ccccc12 too.
inactive

# repeat for CCS(=O)(=O)C(C)(C)S(=O)(=O)CC
inactive

Now the compound CC(C)(C)OC(=O)c1ncn2c1[C@@H]1CCCN1C(=O)c1c(Br)cccc1-2
inactive

Similarly, CC(C)C(Br)C(=O)NC(N)=O (stereo not given) ?
inactive

Same for C[N+]1(CCC(C(N)=O)(c2ccccc2)c2ccccc2)CCCCC1
inactive

Consider next the compound C[N+](C)(C)CCOC(=O)C(O)(c1ccccc1)c1ccccc1 in the same way.
inactive

Request: Oc1c(Br)cc(Br)cc1Br
inactive

Now give it for COCC(=O)N(c1c(C)cccc1C)C(C)C(=O)OC (stereo not given) too.
inactive

Try this compound next: COP(=O)(OC)OC=C(Cl)Cl
inactive

What about O=C(O)c1nn(Cc2ccc(Cl)cc2Cl)c2ccccc12 ?
inactive

Queued: CCN(CC)C(C)C(=O)c1ccccc1 (stereo not given)
inactive

Again, but for CCN(Cc1ccc(Cl)nc1)/C(=C/[N+](=O)[O-])NC
inactive

Same for O=C(NC(=O)c1c(F)cccc1F)Nc1cc(Cl)c(OC(F)(F)C(F)C(F)(F)F)cc1Cl (stereo not given)
active

Would you mind doing CCC1(c2ccccc2)CCC(=O)NC1=O (stereo not given) as well?
inactive

# repeat for CCNc1nc(Cl)nc(NCC)n1
inactive

Try CN1C(=O)CN=C(c2ccccc2)c2cc([N+](=O)[O-])ccc21 next.
inactive

Follow-up entry: CCC1(CC)C(=O)NC(=O)NC1=O
inactive

Same thing, different compound: CC(C)NCC(O)c1ccc(N)c(C#N)c1 (stereo not given)
inactive

Param item: CC(C)(O)C(Cl)(Cl)Cl
active

Next: Nc1ccc(N)cc1
inactive

====

- method-summary: qHTS profiling of the MIPE4 collection as inhibitors of Plasmodium falciparum (HB3) proliferation (AID 743347);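 further: plate controls were DMSO vehicle wells for no effect and artemisinin wells for full effect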
- condition-parameters: P. falciparum HB3 in erythrocytes, SYBR Green DNA, 72 h; at 28.5 µM (top of the series)
readout: growth, % of control (%)
The figure you give is taken to be in %; do not add the unit.

[[record]]
molecule = "COC(=O)C1=CCCN(C)C1"
observed_measurement = 93

[[record]]
molecule = "CCCS(=O)c1ccc2nc(NC(=O)OC)[nH]c2c1 (centres undefined)"
observed_measurement = 81.4

[[record]]
molecule = "Cc1cc(C(C)(C)C)cc(C)c1CC1=NCCN1"
observed_measurement = 84.3


Now examine the next entry.
Give its growth, % of control value. Item: COc1ccc(C(=O)N2CCCC2=O)cc1
103

====

- condition-parameters: Ebola virus entry assay, ratio channel
Active and inactive are the calls of the source. The rule behind the calls is not given here.
Outcome (select one): active, inactive

Check the results log: what was the call for CSc1ccc2c(c1)C(N1CCN(C)CC1)Cc1ccccc1S2 (stereo unspecified) ?
active

====

- Tested on: HeLa
- method-summary: Primary qHTS to identify gynecologic anti-cancer compounds using libraries of approved drugs and bioactive compounds (AID 1345084); further: on the % scale 0 is the no-effect control and ±100 the full control effect; nearly all actives have a fitted effect of over 55% in size
- condition-parameters: Gynecologic cancer cell panel viability, ATPlite luminescence, 48 h; series mostly up to 57.5 µM
Records with an inconclusive call do not appear. Calls of active or inactive are those of the source. The call rests on the fitted dose curve; in most records, active means well fitted cell-killing curve with a large enough effect; inconclusive means small, poorly fitted or top-dose-only effect, or effect the other way; inactive means flat fitted curve, though single readings scatter.
readout: outcome

Solved entries (count: 6):
[[record]]
compound = "CCOC(C(=O)OCCN(C)C)(c1ccccc1)c1ccccc1"
readout = "outcome"
observed_measurement = "inactive"

[[record]]
compound = "CC(Cc1ccc2c(c1)OCO2)NO (stereo unspecified)"
readout = "outcome"
observed_measurement = "inactive"

[[record]]
compound = "CC(C)(O)C(Cl)(Cl)Cl"
readout = "outcome"
observed_measurement = "inactive"

[[record]]
compound = "C[C@@H]1CC[C@H]2[C@@H](C)C(=O)O[C@@H]3O[C@@]4(C)CC[C@@H]1[C@]32OO4"
readout = "outcome"
observed_measurement = "inactive"

[[record]]
compound = "O=C(O)Cc1ccccc1"
readout = "outcome"
observed_measurement = "inactive"

[[record]]
compound = "CCCCC1C(=O)NC(=O)N(C2CCCCC2)C1=O (stereo unspecified)"
readout = "outcome"
observed_measurement = "inactive"


Sample c1ccc2nc(N3CCNCC3)ccc2c1 — what was its outcome?
inactive

// same read-out, input: COc1ccc2[nH]cc(CCN(C(C)C)C(C)C)c2c1
inactive

Field entry: NC(=O)CN1CCCC1=O
inactive

Next compound: COCC(=O)N(c1c(C)cccc1C)C(C)C(=O)OC (stereo unspecified)
inactive

Request: CCOC(=O)NC(C)(C)Cc1ccc(Cl)cc1
inactive
